Ok so here's the combined literature set: IC50 for PIK3CD (Human).

| smiles | target_of_assay | IC50 |
| --- | --- | --- |
| Cc1cccc2cc(Cn3nc(I)c4c(N)ncnc43)n(-c3ccccc3F)c(=O)c12 | PIK3CD (Human) | < 0.1 µM |
| Cc1cccc2cc(Cn3nc(-c4cc(O)cc(F)c4)c4c(N)ncnc43)n(C3CCOCC3)c(=O)c12 | PIK3CD (Human) | < 0.1 µM |
| CC#Cc1cccc2cc([C@H](C)NC(=O)c3c(N)nn4cccnc34)n(-c3ccccc3)c(=O)c12 | PIK3CD (Human) | 1 to 10 µM |
| C[C@H](NC(=O)c1nc(-c2cccc(NS(C)(=O)=O)c2)cnc1N)c1cc2cccc(Cl)c2c(=O)n1-c1ccccc1 | PIK3CD (Human) | 1 to 10 µM |
| C[C@H](NC(=O)c1c(N)nn2cccnc12)c1cc2cccc(C#CCNC(=O)[C@@H]3CCC(=O)O3)c2c(=O)n1-c1ccccc1 | PIK3CD (Human) | 0.1 to 1 µM |
| CC(C)n1c(Cn2nc(-c3cccc(O)c3)c3c(N)ncnc32)cc2ccccc2c1=O | PIK3CD (Human) | < 0.1 µM |
| Cc1ccc(-c2nn(C3Cc4ccccc4C3)c3ncnc(N)c23)cc1N | PIK3CD (Human) | 1.29 µM |
| C[C@@H]1CCN(C(=O)Nc2nc3c(s2)-c2cc(C(C)(C)C)ncc2OC3)[C@@H]1C(N)=O | PIK3CD (Human) | 0.157 µM |
